Readings of inhibition at 0.01 µM for the listed compounds
- target-or-system: COX-2 (Mus musculus, UniProt Q05769)
- Construct: host or cells: RAW 264.7 cells, aspirin-pretreated, then induced with interferon gamma and LPS
- Sequence (Q05769 18-604): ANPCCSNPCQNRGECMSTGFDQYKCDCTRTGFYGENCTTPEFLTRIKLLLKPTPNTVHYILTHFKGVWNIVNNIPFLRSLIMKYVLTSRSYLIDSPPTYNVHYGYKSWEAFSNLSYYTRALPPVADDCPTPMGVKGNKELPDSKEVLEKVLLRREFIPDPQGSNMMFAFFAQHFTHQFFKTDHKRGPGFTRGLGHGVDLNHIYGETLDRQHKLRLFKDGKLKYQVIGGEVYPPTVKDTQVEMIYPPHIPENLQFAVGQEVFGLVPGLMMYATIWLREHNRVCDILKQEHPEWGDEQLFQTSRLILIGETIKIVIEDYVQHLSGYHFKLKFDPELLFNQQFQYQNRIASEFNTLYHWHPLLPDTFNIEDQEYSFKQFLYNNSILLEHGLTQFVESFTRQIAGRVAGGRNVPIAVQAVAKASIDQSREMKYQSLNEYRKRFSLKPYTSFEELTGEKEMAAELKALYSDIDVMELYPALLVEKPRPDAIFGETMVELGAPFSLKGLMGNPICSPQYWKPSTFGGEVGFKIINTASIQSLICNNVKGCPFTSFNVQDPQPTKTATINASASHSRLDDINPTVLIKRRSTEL
- test-method-notes: Assay for the COX-2 inhibitory activity using RAW 264.7 cell line (PGE2, interferon γ/LPS induced)
- Type: cell-based
- test-settings: RAW264.7; 10 nM test compound; RAW 264.7 cells; interferon γ + LPS, 18 hours; PGE2; read-out: Cyclooxygenase (COX) Inhibition (%) COX-2 (10 nM)
observable: inhibition at 0.01 µM

[[record]]
compound = "NS(=O)(=O)c1ccc(-n2nc(C(F)(F)F)nc2-c2ccc(Br)cc2)cc1 [Example 44]"
observable = "inhibition at 0.01 µM"
observed_value = "29.9%"

[[record]]
compound = "CS(=O)(=O)c1ccc(-n2nc(C(F)(F)F)nc2-c2cccc(Cl)c2)cc1 [Example 30]"
observable = "inhibition at 0.01 µM"
observed_value = "7.32%"

[[record]]
compound = "CS(=O)(=O)c1ccc(-n2nc(C(F)(F)F)nc2-c2ccc(C#N)cc2)cc1 [Example 37]"
observable = "inhibition at 0.01 µM"
observed_value = "8.92%"

